Taken from paper PMC5540273.

// values below are reported %Inh
tested on: NEK2; conditions: concentration: 1 μM, replicates: in singlicate; n = 1;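 also: KINOMEscan kinase panel screen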

{"smiles-notation": "CCCCc1nn2ncccc2c1-c1ccnc(Nc2ccc(N3CCN(C)CC3)cc2)n1", "unit-text": "%", "%Inh": 53}
{"smiles-notation": "Cn1cc(-c2[nH]c3cc(NC(=O)[C@H](N)C4CCCCC4)cc4c3c2C=NNC4=O)cn1", "unit-text": "%", "%Inh": 21}
{"smiles-notation": "Oc1cc(Nc2ccnc3cc(I)ccc23)ccc1F", "unit-text": "%", "%Inh": 0}
{"smiles-notation": "O=C(Nc1ccccc1F)NC1CCN(c2ccnc(Nc3ccc(F)cc3)n2)CC1", "unit-text": "%", "%Inh": 0}
{"smiles-notation": "Nc1ncc(-c2cccnc2)c2scc(-c3ccc4c(c3)CCN4C(=O)Cc3ccccc3)c12", "unit-text": "%", "%Inh": 70}
{"smiles-notation": "c1ccc(-c2n[nH]cc2Nc2ccnc3ccccc23)nc1", "unit-text": "%", "%Inh": 99.1}
{"smiles-notation": "CCc1ccc(-c2ccc3c(c2)-c2c(cnn2C)S(=O)(=O)N3C)cc1", "unit-text": "%", "%Inh": 5}

----------
system: VPS34; construct: gene PIK3C3; details: concentration: 1 μM, replicates: in singlicate; n = 1
%Inh values for the compounds below.
assay-metric: %Inh (%)

{"compound": "O=C(NC1CCN(c2ccnc(Nc3ccc(F)cc3)n2)C1)c1cc2ccccc2s1 (stereo not drawn)", "unit-text": "%", "endpoint-value": 38}
{"compound": "Cc1occc1-c1ncc(OC[C@@H](N)Cc2c[nH]c3ccccc23)cc1-c1ccc2[nH]nc(C)c2c1.O=C(O)C(F)(F)F", "unit-text": "%", "endpoint-value": 3}
{"compound": "Cl.c1ccc(-c2ccc3c(Nc4ccc5[nH]ccc5c4)ccnc3c2)nc1", "unit-text": "%", "endpoint-value": 0}

----------
tested on: EPHB4; conditions: concentration: 1 μM, replicates: in singlicate; n = 1
Measured %Inh by item
assay-metric: %Inh

{"molecule": "c1ccc(-c2n[nH]cc2Nc2ccnc3ccccc23)nc1 [GW694077]", "endpoint-value": "0%"}
{"molecule": "Cc1occc1-c1ncc(OC[C@@H](N)Cc2c[nH]c3ccccc23)cc1-c1ccc2[nH]nc(C)c2c1.O=C(O)C(F)(F)F [GSK682037]", "endpoint-value": "14%"}
{"molecule": "O=C(Nc1cccc(-c2nn3ccccc3c2-c2ccnc(Nc3cccc(C(F)(F)F)c3)n2)c1)c1c(F)cccc1F [GSK292658]", "endpoint-value": "0%"}
{"molecule": "CN1CCN(CCCNc2nccc(-c3c(-c4ccc(F)cc4)nn4cc(C(F)(F)F)ccc34)n2)CC1 [GW621581]", "endpoint-value": "9%"}

----------
system: PIK3CB; conditions: concentration: 1 μM, replicates: in singlicate; n = 1
assay-metric: %Inh

{"compound": "COc1cc(Nc2nccc(N3CCC(NC(=O)c4cc5ccccc5s4)C3)n2)cc(OC)c1OC (stereo not drawn) [GSK1379760]", "assay-metric": "%Inh", "endpoint-value": "0%"}
{"compound": "COc1cc(Nc2nccc(-c3c(-c4cccc(NC(=O)c5c(F)cccc5F)c4)nn4ncccc34)n2)cc(OC)c1OC [GSK327238]", "assay-metric": "%Inh", "endpoint-value": "3%"}
{"compound": "O=C(O)C(F)(F)F.O=C(O)C(F)(F)F.O=c1[nH]ccc2nc(N[C@@H]3CCCNC3)nc(Nc3ccc(S(=O)(=O)N4CCOCC4)cc3)c12 [GSK2177277]", "assay-metric": "%Inh", "endpoint-value": "0%"}
{"compound": "COc1cc(Nc2nccc(-c3c(-c4cccc(NC(=O)c5c(F)cccc5F)c4)nn4ccccc34)n2)cc(OC)c1OC [GSK323521]", "assay-metric": "%Inh", "endpoint-value": "16%"}
{"compound": "Cc1ccc(C(=O)Nc2ccc(Nc3ccnc4cc(-c5nccs5)ccc34)cc2O)cc1.Cl [GW494702]", "assay-metric": "%Inh", "endpoint-value": "0%"}
{"compound": "O=C(Nc1n[nH]c2nc(-c3ccc(O)cc3)ccc12)C1CC1 [SB-710363]", "assay-metric": "%Inh", "endpoint-value": "0%"}
